Target: DYRK3 (Homo sapiens, UniProt O43781)
Sequence (O43781 whole entry, species assumed): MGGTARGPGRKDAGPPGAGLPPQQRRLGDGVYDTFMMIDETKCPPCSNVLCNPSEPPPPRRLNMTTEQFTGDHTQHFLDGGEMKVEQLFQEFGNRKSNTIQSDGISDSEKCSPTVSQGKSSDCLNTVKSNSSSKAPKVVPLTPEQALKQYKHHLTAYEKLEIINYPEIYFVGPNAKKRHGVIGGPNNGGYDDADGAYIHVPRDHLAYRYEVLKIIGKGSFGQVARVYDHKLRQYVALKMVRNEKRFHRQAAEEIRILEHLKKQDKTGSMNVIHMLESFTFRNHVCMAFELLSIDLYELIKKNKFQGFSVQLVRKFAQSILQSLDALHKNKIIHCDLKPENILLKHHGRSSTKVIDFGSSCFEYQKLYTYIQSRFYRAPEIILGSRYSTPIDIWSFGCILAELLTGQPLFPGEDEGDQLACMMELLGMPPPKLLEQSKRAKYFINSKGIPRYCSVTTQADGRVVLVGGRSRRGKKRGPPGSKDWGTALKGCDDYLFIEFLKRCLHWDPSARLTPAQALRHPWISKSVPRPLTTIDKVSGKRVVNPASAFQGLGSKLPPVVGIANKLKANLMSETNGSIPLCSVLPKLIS
measured.endpoint: IC50 (µM)
Please reply with the bare figure in µM and do not write the unit itself.

Summary for this compound, COc1ccc2c(c1)[nH]c1c(C)nccc12 : IC50 is 0.8

Numbers sourced from patent US20100063085A1.
